B1: Azoarcus group I ribozyme (parent)
chain: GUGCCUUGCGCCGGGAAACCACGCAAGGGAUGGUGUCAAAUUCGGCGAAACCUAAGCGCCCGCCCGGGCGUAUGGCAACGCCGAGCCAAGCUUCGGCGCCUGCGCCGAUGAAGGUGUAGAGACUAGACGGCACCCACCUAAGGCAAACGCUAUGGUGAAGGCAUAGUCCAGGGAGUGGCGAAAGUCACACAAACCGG

# Variants of: B1
# ASSAY METHOD TEXT: reverse-splicing fitness (ratio to wild type); higher = more active; in vitro selection; Mg2+ level not given
Quick reference: reverse-splicing fitness of the listed items.
METRIC: reverse-splicing fitness

# VARIANT NAME, METRIC, VALUE REPORTED
rows = [
    ("C82A A145U C150G", "reverse-splicing fitness", 0.0675),
    ("C82U A111G A120G A145U C150A U176A", "reverse-splicing fitness", 0.00974),
    ("A145C C150A C169U", "reverse-splicing fitness", 0.0286),
    ("C82G A145C C150G C169A U176A", "reverse-splicing fitness", 0.00807),
    ("A120C A145C C169A", "reverse-splicing fitness", 0.0312),
    ("C82U A145C C150U C169A U176C", "reverse-splicing fitness", 0.00467),
    ("C82U A111C A120U C150G C169A U176C", "reverse-splicing fitness", 0.00467),
    ("C82U A111G A120C C150A", "reverse-splicing fitness", 0.0113),
    ("C82U A111G A120C A145G C150U C169A U176A", "reverse-splicing fitness", 0.0135),
    ("A120C C150G C169U U176C", "reverse-splicing fitness", 0.0388),
    ("C82G A120G A145G C150U C169U U176C", "reverse-splicing fitness", 0.0187),
    ("C82G A111U A145G U176G", "reverse-splicing fitness", 0.061),
    ("C82A A120U A145U C150G C169G U176C", "reverse-splicing fitness", 0.00221),
    ("A111G A120U A145C C169U U176G", "reverse-splicing fitness", 0.00329),
    ("C82G A111G A145G C150A C169G U176C", "reverse-splicing fitness", 0.0258),
    ("A120U A145U C150A C169U U176G", "reverse-splicing fitness", 0.00399),
    ("A111U A120U U176C", "reverse-splicing fitness", 0.296),
    ("C82U A111G A120G A145G C150G U176A", "reverse-splicing fitness", 0.00637),
    ("C82G A120U A145G C150A", "reverse-splicing fitness", 0.0245),
    ("A120U U176A", "reverse-splicing fitness", 0.66),
    ("A111C A120C C169G", "reverse-splicing fitness", 0.00921),
    ("A111G A120G A145C C150G C169A U176G", "reverse-splicing fitness", 0.00453),
    ("C82A A111G A120C", "reverse-splicing fitness", 0.0449),
    ("C82A C169U", "reverse-splicing fitness", 0.0153),
    ("C82G A111U A120G A145U C150G U176A", "reverse-splicing fitness", 0.00634),
    ("A111C C150U C169A U176C", "reverse-splicing fitness", 0.0136),
    ("A120G A145U C169U U176C", "reverse-splicing fitness", 0.194),
    ("C82A A111C A120C A145G C150G U176C", "reverse-splicing fitness", 0.0113),
    ("C82A A111G A120G A145U C150A C169G U176C", "reverse-splicing fitness", 0.0169),
    ("C82U A111U A120U A145C C150U C169G", "reverse-splicing fitness", 0.00276),
    ("C82G A111U A120C A145G C169U U176A", "reverse-splicing fitness", 0.0138),
    ("C82U A111C A120G C150U C169A U176A", "reverse-splicing fitness", 0.0142),
    ("C82A A120C A145C C150A C169U U176C", "reverse-splicing fitness", 0.0111),
    ("C82G A120G A145U C150U C169G U176C", "reverse-splicing fitness", 0.0218),
    ("C82G A120U A145U C150A U176C", "reverse-splicing fitness", 0.0105),
    ("C82U A111U C169G U176G", "reverse-splicing fitness", 0.0052),
    ("C82A A120G A145U C150U C169G U176C", "reverse-splicing fitness", 0.0154),
    ("C82U A111G A145C C169U U176A", "reverse-splicing fitness", 0.0108),
    ("C82A C150G C169U U176G", "reverse-splicing fitness", 0.00641),
    ("A111C A120U A145U C169A U176G", "reverse-splicing fitness", 0.00217),
    ("A120U C150A U176C", "reverse-splicing fitness", 0.172),
    ("C82U A111U C150U C169G U176A", "reverse-splicing fitness", 0.013),
    ("C82G A111U A120U C150G C169G U176G", "reverse-splicing fitness", 0.003),
    ("C82A A111U A145C C150A C169G", "reverse-splicing fitness", 0.00849),
    ("C82G A111G A120G A145C C150U C169G U176A", "reverse-splicing fitness", 0.022),
    ("C82A A111C A120C A145C C169U U176C", "reverse-splicing fitness", 0.0141),
    ("C82A A120U A145U C169G U176C", "reverse-splicing fitness", 0.00254),
    ("A111C A120C A145C C150A U176G", "reverse-splicing fitness", 0.0084),
    ("C82G A120C A145G C150A C169G U176A", "reverse-splicing fitness", 0.0184),
    ("A111G A145C C169G U176G", "reverse-splicing fitness", 0.00491),
    ("C82G A111G A120U C150U C169U U176G", "reverse-splicing fitness", 0.00214),
    ("C82A A111U C150U C169G U176G", "reverse-splicing fitness", 0.00649),
    ("C82G A111C A120U C150G C169A U176C", "reverse-splicing fitness", 0.0071),
    ("C82U A111G A120G A145C C169A U176G", "reverse-splicing fitness", 0.00366),
    ("A111U A120U A145G C150A C169G U176C", "reverse-splicing fitness", 0.00547),
    ("C82U A111G A145C C169U U176C", "reverse-splicing fitness", 0.00903),
    ("A111C A120U U176C", "reverse-splicing fitness", 0.257),
    ("A111C A120G A145G C150A C169U", "reverse-splicing fitness", 0.0326),
    ("C82G A111U A120U A145C C150U", "reverse-splicing fitness", 0.0116),
    ("C82G A111G A120G C169U", "reverse-splicing fitness", 0.0144),
    ("C82G A120C A145C C150G U176G", "reverse-splicing fitness", 0.00422),
    ("C82A A111U A120U U176G", "reverse-splicing fitness", 0.00275),
    ("C82U A111G A145C C150G U176C", "reverse-splicing fitness", 0.0249),
    ("A145C", "reverse-splicing fitness", 0.95),
    ("C82A A111G A120U A145U C150U U176A", "reverse-splicing fitness", 0.00864),
    ("A111U A120C C169A U176A", "reverse-splicing fitness", 0.0174),
    ("A111G A120C A145U C150G C169U U176C", "reverse-splicing fitness", 0.0159),
    ("C82A A111U A120G A145G C150G C169A U176A", "reverse-splicing fitness", 0.0132),
    ("C82A A111U A120U C169A", "reverse-splicing fitness", 0.00416),
    ("C82U A120G C150G C169G U176C", "reverse-splicing fitness", 0.0046),
    ("C82A A120G A145C C150A C169A", "reverse-splicing fitness", 0.00694),
    ("C82U A120C A145U C150G C169U U176G", "reverse-splicing fitness", 0.00467),
    ("C82G A111G A120U A145C C150G C169A", "reverse-splicing fitness", 0.00256),
    ("C82A A145C C150A C169A", "reverse-splicing fitness", 0.00702),
    ("C82U A145U C150A C169U U176A", "reverse-splicing fitness", 0.0118),
    ("C82A A120U A145C C150G C169A U176C", "reverse-splicing fitness", 0.00155),
    ("C82U A111U A120G A145U C150G C169A", "reverse-splicing fitness", 0.00759),
    ("C82U A111U A120G A145U C169A", "reverse-splicing fitness", 0.00696),
    ("C82U A111U A120G A145U C150U C169U U176C", "reverse-splicing fitness", 0.0139),
    ("C82U A111U A120C A145G C150G C169G U176A", "reverse-splicing fitness", 0.00984),
    ("C82A A111U A120C A145G C150G C169U", "reverse-splicing fitness", 0.0104),
    ("C82G A111U A120C A145G C150A C169U", "reverse-splicing fitness", 0.0121),
    ("C82G A111U A120G A145G C150A C169U U176C", "reverse-splicing fitness", 0.0177),
    ("C82G A111C A120G A145U C150A C169U", "reverse-splicing fitness", 0.00666),
    ("C82A A111C A120C A145U C150G C169A U176C", "reverse-splicing fitness", 0.0125),
    ("C82A A111G A145C U176A", "reverse-splicing fitness", 0.181),
    ("C82G A111U A120G A145G C150U C169G", "reverse-splicing fitness", 0.0128),
    ("A111G A145G C169A U176C", "reverse-splicing fitness", 0.036),
    ("C82A A111U A120U A145G C150U C169U U176A", "reverse-splicing fitness", 0.00537),
    ("A111G A120U A145C C150A C169A U176A", "reverse-splicing fitness", 0.00282),
    ("A120U A145G C169U", "reverse-splicing fitness", 0.286),
]
